Test: Cytotoxicity against HEK293 cells assessed as cell viability at 25 ug/ml incubated for 20 hrs by XTT assay relative to control
Format: toxicity, cell-based
Settings: human, at 25 µg/mL, read-out: Activity
Reported viability at 20 h, 25 ug/ml is given for each of the following molecules.
Report field: quantity (unit follows the number).

Data request: Need viability at 20 h, 25 ug/ml, item Cc1cccc(C2Sc3ccccc3NC3=C2C(=O)c2ccccc23)c1F (configuration not stated)
Data returned: 78%

Data request: Need viability at 20 h, 25 ug/ml, item N#Cc1ccccc1C1Sc2ccccc2NC2=C1C(=O)c1ccccc12 (configuration not stated)
Data returned: 84%

====

Experiment: Stability of compound in human serum assessed as compound remaining at 2 mg/ml measured after 180 mins by HPLC analysis
Type: ADME, cell-free
Details: read-out: Stability
readoutLabel: remaining at 3 h, 2 mg/ml
Report field: quantity (unit follows the number).

Data request: Need remaining at 3 h, 2 mg/ml, item N#Cc1ccccc1C1Sc2ccccc2NC2=C1C(=O)c1ccccc12 (stereo unspecified)
Data returned: 100%
